Sourced from PubChem BioAssay (NCI)

System: NCI/ADR-RES ovarian
EXPERIMENTAL PROTOCOL: NCI tumour cell line growth inhibition, 48 h
For each entry below, report its log10(TGI) value.
For clarity, the numbers are log10 values of TGI expressed in µM.

Entry C=C1C(=O)O[C@H]2[C@H]1CC/C(CNC(=O)C(C)c1ccc(CC(C)C)cc1)=C\CC[C@@]1(C)O[C@@H]21 (stereo not given in full) , NCI/ADR-RES ovarian data, log10(TGI) value: 0.74

Entry COc1ccccc1-c1ccc2c(N)c(C(=O)c3ccc4c(c3)OCO4)sc2n1 , NCI/ADR-RES ovarian data, log10(TGI) value: 1.22

Entry O=C(Nc1cccc(-n2ccc3c(NC(=O)c4ccccc4)nccc32)c1)c1ccc(Cl)c(Cl)c1 , NCI/ADR-RES ovarian data, log10(TGI) value: -0.42

Entry CCC/C=C/C=C\C(=O)O[C@@H]1[C@@H](C)[C@]2(O)[C@@H]3C=C(C)C(=O)[C@H]3CC(COC(C)=O)=C[C@H]2[C@@H]2C(C)(C)[C@]12OC(C)=O , NCI/ADR-RES ovarian data, log10(TGI) value: 2.06

Entry CC(=O)c1sc2c(c1OC(=O)c1ccccc1)c(=O)n(-c1ccccc1)c(=S)n2-c1ccccc1 , NCI/ADR-RES ovarian data, log10(TGI) value: 1.46

Entry CC(c1ccccc1)n1c2ccccc2c2c(N)ncnc21 (stereo not given) , NCI/ADR-RES ovarian data, log10(TGI) value: 1.67

###

System: M14 melanoma
EXPERIMENTAL PROTOCOL: NCI tumour cell line growth inhibition, 48 h
READOUT LABEL: log10(TGI) (log10 of the value in µM)
For clarity, the numbers are log10 values of TGI expressed in µM.

The compound listed as CCN(CC)CCNc1ccc(N=Nc2cnc3ccccc3c2)c2ccccc12 has a reported log10(TGI) of 0.52

The compound listed as COc1cccc(C2c3cc4c(cc3OC(NNC(N)=O)C2C)OCO4)c1OC (centres undefined) has a reported log10(TGI) of 1.61

The compound listed as Cc1cc(C(=O)CC(Cl)=C(Cl)Cl)c(Cl)cc1Cl has a reported log10(TGI) of 1.89

The compound listed as Cc1cnc(-c2ccc(-c3ccc(NC(=O)Nc4cccc(C(F)(F)F)c4)cc3F)c3c2C(=O)NC3)[nH]1 has a reported log10(TGI) of 1.52

The compound listed as O=C(Nc1cccc(-n2ccc3c(NC(=O)c4ccccc4)nccc32)c1)c1ccc(Cl)c(Cl)c1 has a reported log10(TGI) of -0.10

The compound listed as CC(c1ccccc1)n1c2ccccc2c2c(N)ncnc21 (centres undefined) has a reported log10(TGI) of 1.53

###

System: NCI-H460 lung
EXPERIMENTAL PROTOCOL: NCI tumour cell line growth inhibition, 48 h
READOUT LABEL: TGI (µM)
Write down the numeric answer in µM and omit the unit.

Entry COC1=C(OC)C(=O)C(C/C=C/c2c(Cl)nc3sccn23)=C(C)C1=O , NCI-H460 lung data, TGI value: 38.6

Entry CCc1nc(N)nc(N)c1-c1ccc(N(C)Cc2ccccc2)c([N+](=O)[O-])c1 , NCI-H460 lung data, TGI value: 8.72

Entry CC(c1ccccc1)n1c2ccccc2c2c(N)ncnc21 (stereo unspecified) , NCI-H460 lung data, TGI value: 58.3

Entry COc1cc(C(=O)c2cnc(-c3ccc4cc[nH]c4c3)[nH]2)cc(OC)c1OC , NCI-H460 lung data, TGI value: 11.5

Entry CN(CCCNC(=O)c1cn(C)c2c1ccc1ccccc12)CCCNC(=O)c1cn(C)c2c1ccc1ccccc12 , NCI-H460 lung data, TGI value: 2.83

###

Tested on: HT29 colon
EXPERIMENTAL PROTOCOL: NCI tumour cell line growth inhibition, 48 h
READOUT LABEL: TGI (µM)
Write down the numeric answer in µM and omit the unit.

The molecule listed as Oc1ccccc1/C=N\Nc1ccccc1 has a reported TGI of 28.4

The molecule listed as COC1=C(OC)C(=O)C(C/C=C/c2c(Cl)nc3sccn23)=C(C)C1=O has a reported TGI of 46.9

The molecule listed as c1cc2cc(Cc3ccc4[nH]ccc4c3)ccc2[nH]1 has a reported TGI of 33.1

The molecule listed as COc1ccc2[nH]cc(Cc3c[nH]c4ccc(OC)cc34)c2c1 has a reported TGI of 32.3

###

System: SK-MEL-2 melanoma
EXPERIMENTAL PROTOCOL: NCI tumour cell line growth inhibition, 48 h
Where a SMILES comes first, the peptide text is derived from it. Bridges are numbered along the chain shown (N, C = ends).
READOUT LABEL: TGI (µM)
Write down the numeric answer in µM and omit the unit.

The molecule listed as CC[C@H](C)[C@H](NC(=O)[C@H]1CCCCN1C)C(=O)N(C)[C@H](C[C@@H](OC(C)=O)c1nc(C(=O)NC23C4C5C2C2C3C4C52C(=O)OC)cs1)C(C)C (some centres not stated) has a reported TGI of 0.00452

The molecule listed as O=C(N/N=C/c1cc(Cl)cc(Cl)c1[O-])c1ccccc1O.O=C(N/N=C/c1cc(Cl)cc(Cl)c1[O-])c1ccccc1O.[Cu+2] has a reported TGI of 2.1

The molecule listed as O=C1/C=C/[C@@H](O)[C@@H]2C[C@@H](O)C[C@H]2/C=C/CCC[C@H](CCc2ccc(NC(=S)Nc3ccc4c(c3)C(=O)OC43c4ccc(O)cc4Oc4cc(O)ccc43)cc2)O1 has a reported TGI of 5.22

The molecule listed as CCN(CC)CCNc1ccc(N=Nc2cnc3ccccc3c2)c2ccccc12 has a reported TGI of 4.3

The molecule listed as CCc1nc(N)nc(N)c1-c1ccc(N(C)Cc2ccccc2)c([N+](=O)[O-])c1 has a reported TGI of 20

The molecule listed as CCN(CC)CCCNc1nccc2c(C)c3[nH]c4ccncc4c(=O)c3cc12 has a reported TGI of 9.34

The molecule listed as CN1CCN(C(=O)[C@@]2(C)CC[C@]3(C)CC[C@]4(C)C(=CC[C@@H]5[C@@]6(C)CC[C@H](OC(=O)c7cccnc7)C(C)(C)[C@@H]6CC[C@]54C)[C@@H]3C2)CC1 has a reported TGI of 28.6

The molecule listed as CCC(C)C1NC(=O)C(CC(C)C)NC(=O)C(C(C)C)NC(=O)C2CSSCC(NC1=O)C(=O)N2 (configuration not stated) (cyclo(CCVLI); disulfide 1-2; configuration not given here) has a reported TGI of 0.363

The molecule listed as COC1=C(OC)C(=O)C(C/C=C/c2c(Cl)nc3sccn23)=C(C)C1=O has a reported TGI of 48.3

The molecule listed as C[n+]1ccc2/c(=C\C#N)c3ccccc3n21 has a reported TGI of 89.9

The molecule listed as O=c1oc2ccc(I)cc2c(=O)n1-c1ccc(I)cc1F has a reported TGI of 2.55

###

Tested on: MOLT-4 leukemia
EXPERIMENTAL PROTOCOL: NCI tumour cell line growth inhibition, 48 h
READOUT LABEL: TGI

Entry CCc1cc2c(Nc3ccccc3)c3c(nc2s1)CCCC3 , MOLT-4 leukemia data, TGI value: > 100 µM

Entry O=C(CO)CC(=O)C(=O)Nc1cccc(C(F)(F)F)c1 , MOLT-4 leukemia data, TGI value: > 100 µM

Entry CCCCCCCCCCCCSC1=CC(=O)C=CC1=O , MOLT-4 leukemia data, TGI value: 8.97 µM

Entry S=C1C(CCCOCc2ccccc2)C2CCCC23CC2(CCN13)OCCS2 (configuration not stated) , MOLT-4 leukemia data, TGI value: > 10 µM

Entry O=C(OCC1CC(C2(O)CCCCC2)C(=O)O1)c1ccccc1 (configuration not stated) , MOLT-4 leukemia data, TGI value: > 100 µM

Entry COC(=O)CCc1cc(OC)c2oc(-c3ccc(OC)c(OC)c3)c(CO)c2c1 , MOLT-4 leukemia data, TGI value: > 100 µM

Entry CCc1nc(N)nc(N)c1-c1ccc(N(C)Cc2ccccc2)c([N+](=O)[O-])c1 , MOLT-4 leukemia data, TGI value: 8.11 µM

Entry Oc1ccccc1CNCc1ccccc1O , MOLT-4 leukemia data, TGI value: > 100 µM

Entry CC[C@H](C)[C@H](NC(=O)[C@H]1CCCCN1C)C(=O)N(C)[C@H](C[C@@H](OC(C)=O)c1nc(C(=O)NC23C4C5C2C2C3C4C52C(=O)OC)cs1)C(C)C (some centres not stated) , MOLT-4 leukemia data, TGI value: > 25 µM

Entry C=C1CCCC2OC(OC)CCC12 (configuration not stated) , MOLT-4 leukemia data, TGI value: > 100 µM

Entry COc1ccccc1NC(=O)C(=O)C(c1cnc2ccc([N+](=O)[O-])cc2n1)[N+](=O)[O-] (configuration not stated) , MOLT-4 leukemia data, TGI value: > 100 µM

Entry CC(C)(C)c1cc(OCc2n[nH]c(=S)n2N)c(Cl)cc1OCc1n[nH]c(=S)n1N , MOLT-4 leukemia data, TGI value: > 100 µM

Entry CCOC(=O)Cc1ccc(Nc2nc3cc(F)c(F)cc3nc2C(=O)OCC)cc1 , MOLT-4 leukemia data, TGI value: > 100 µM

Entry COC(=O)c1cc2c([nH]c3ccccc32)c(-c2nc3ccccc3cc2CO)n1 , MOLT-4 leukemia data, TGI value: > 100 µM

Entry CCOC(=O)C1=C(C)C2C3C(=O)OC(=O)C3C1(C)C1C(=O)OC(=O)C21 (configuration not stated) , MOLT-4 leukemia data, TGI value: > 100 µM

Entry Cc1ccc(-c2nc3ccccc3c(=O)n2NC2OC(CO)C(O)C(O)C2O)cc1 (configuration not stated) , MOLT-4 leukemia data, TGI value: > 100 µM

Entry CC(c1ccccc1)n1c2ccccc2c2c(N)ncnc21 (configuration not stated) , MOLT-4 leukemia data, TGI value: 52.7 µM

Entry Cc1cc2nc3c(C#N)c4c(c(Cl)n3c2cc1C)CCC4 , MOLT-4 leukemia data, TGI value: > 100 µM

Entry CC(C)(C)C1CCC2c3c([nH]c4ccccc34)C3C(=O)N(c4cc(Cl)ccc4Cl)C(=O)C3C2C1 (configuration not stated) , MOLT-4 leukemia data, TGI value: > 100 µM

Entry O=C1CS(=O)c2ccccc2N1 (configuration not stated) , MOLT-4 leukemia data, TGI value: > 100 µM

Entry CC(C)OP(=O)(OC(C)C)/C(=N/Nc1ccc([N+](=O)[O-])cc1)NNC(=O)c1ccccc1 , MOLT-4 leukemia data, TGI value: 42.2 µM

Entry CC(C)(CN1CCCCC1)C(=O)CC(SCCS(=O)(=O)O)c1ccccc1 (configuration not stated) , MOLT-4 leukemia data, TGI value: 36.1 µM
